// data source = patent US9173892B2

Tested on: ImaR cells
Assay explanation: cell viability (XTT) of imatinib-resistant ImaR cells
Format: cell-based, human
Run conditions: Homo sapiens, 0.5 mM, 24 hours, XTT, read-out: percentage of viable cells
Metric: viability at 500 µM

The following compounds have reported results that may help.
INSERT INTO assay_data (compound, metric, reported_result) VALUES
  ('CCOC(=O)C#Cc1c(C(=O)OCC)nnn1[C@@H]1O[C@H](COC(C)=O)[C@@H](OC(C)=O)[C@H]1OC(C)=O', 'viability at 500 µM', '< 10%'),
  ('CCOC(=O)c1nnn(C2OC(COC(C)=O)C(OC(C)=O)C(OC(C)=O)C2OC(C)=O)c1I (stereo not drawn)', 'viability at 500 µM', '< 10%'),
  ('CCOC(=O)c1nnn(Cc2ccc3ccccc3c2)c1I', 'viability at 500 µM', '< 10%'),
  ('CCOC(=O)C#Cc1c(C(=O)OCC)nnn1Cc1ccc2ccccc2c1', 'viability at 500 µM', '< 10%'),
  ('CCOC(=O)c1nnn([C@@H]2O[C@H](COC(C)=O)[C@@H](OC(C)=O)[C@H]2OC(C)=O)c1Cl', 'viability at 500 µM', '< 10%');

Please report viability at 500 µM for every entry that follows.
1. CCOC(=O)C#Cc1c(C(=O)OCC)nnn1Cc1ccc(C)cc1
2. CCCCCCCC#Cc1c(CCCCCCC)nnn1[C@@H]1O[C@H](COC(C)=O)[C@@H](OC(C)=O)[C@H]1OC(C)=O
3. CCOC(=O)c1nnn([C@@H]2O[C@H](COC(C)=O)[C@@H](OC(C)=O)[C@H]2OC(C)=O)c1-c1cccs1
4. CCOC(=O)c1nnn([C@@H]2O[C@H](COC(C)=O)[C@@H](OC(C)=O)[C@H]2OC(C)=O)c1-c1ccccc1

1. < 10%
2. < 10%
3. < 10%
4. < 10%
